test system: C2O4^2− transport, MDCK cells; test: In vitro litholytic activity: C2O4^2− transport inhibition, Transwell chamber with MDCK cells; type: cell-based, canine; settings: Canis lupus familiaris; 100 μmol/L, MDCK cells in Transwell; mean ± SD of three replicates; read-out: Transport Inhibition Rate (%) C2O4^2−
readoutLabel: inhibition at 100 µM (%)
One number for each entry, in %.

[ask] I am curious: what inhibition at 100 µM value has been reported for "C=CCOC(=O)c1c(C)cc(OC(=O)c2c(C)cc(OCc3ccccc3)c(C)c2O)c(C)c1O" ?
[reply] -29.4

[ask] Give its inhibition at 100 µM value. Item: "CCOc1cc(C)c(C(=O)Oc2cc(C)c(C(=O)OCC#N)c(O)c2C)c(O)c1C"
[reply] 61

[ask] // inhibition at 100 µM lookup, key: "CCOC(=O)c1c(C)cc(OC(=O)c2c(C)cc(OCc3ccccc3)c(C)c2O)c(C)c1O"
[reply] 10.3

[ask] Which inhibition at 100 µM value belongs to "CCOC(=O)c1c(C)cc(OC(=O)c2c(C)cc(OC)c(C)c2O)c(C)c1O" ?
[reply] 1.01

[ask] Look up inhibition at 100 µM: "Cc1cc(OCc2ccccc2)c(C)c(O)c1C(=O)Oc1cc(C)c(C(=O)OC(C)C)c(O)c1C"
[reply] 2.28

Parameter requested: inhibition at 100 µM. Apply to each item below.
1. C=CCOC(=O)c1c(C)cc(OC(=O)c2c(C)cc(OC)c(C)c2O)c(C)c1O
2. Cc1cc(OC(=O)c2c(C)cc(OC(C)C)c(C)c2O)c(C)c(O)c1C(=O)OCc1ccccc1

[reply]
1: 6.89; 2: -20.6
